biological target: binding partner of C5A (XPA23); experiment: Biacore
property: fold affinity vs original (fold)
Provide only the numeric value, understood in fold.

Completed entries (count: 4):
1. C5A (XPA23) VH T58F (antibody, V domains shown) VH: EVQLLESGGGLVQPGGSLRLSCAASGFTFSKYFMFWVRQAPGKGLEWVSVISPSGGMFRYADSVKGRFTISRDNSKNTLYLQMNSLRAEDTAVYYCARVGYGGNSDYWGQGTLVTVSS VL: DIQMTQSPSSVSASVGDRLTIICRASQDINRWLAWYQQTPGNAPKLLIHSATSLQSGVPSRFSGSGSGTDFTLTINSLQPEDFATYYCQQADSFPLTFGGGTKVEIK :: 1.04
2. C5A (XPA23) VH Y101E (antibody, V domains shown) VH: EVQLLESGGGLVQPGGSLRLSCAASGFTFSKYFMFWVRQAPGKGLEWVSVISPSGGMTRYADSVKGRFTISRDNSKNTLYLQMNSLRAEDTAVYYCARVGEGGNSDYWGQGTLVTVSS VL: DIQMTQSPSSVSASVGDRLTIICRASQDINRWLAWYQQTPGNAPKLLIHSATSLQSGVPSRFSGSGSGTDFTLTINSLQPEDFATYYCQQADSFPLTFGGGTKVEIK :: 0.03
3. C5A (XPA23) VH Y32S (antibody, V domains shown) VH: EVQLLESGGGLVQPGGSLRLSCAASGFTFSKSFMFWVRQAPGKGLEWVSVISPSGGMTRYADSVKGRFTISRDNSKNTLYLQMNSLRAEDTAVYYCARVGYGGNSDYWGQGTLVTVSS VL: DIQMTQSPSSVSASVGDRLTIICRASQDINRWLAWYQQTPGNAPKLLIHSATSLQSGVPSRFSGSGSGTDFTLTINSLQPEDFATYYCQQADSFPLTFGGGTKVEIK :: 1.33
4. C5A (XPA23) VH R59F (antibody, V domains shown) VH: EVQLLESGGGLVQPGGSLRLSCAASGFTFSKYFMFWVRQAPGKGLEWVSVISPSGGMTFYADSVKGRFTISRDNSKNTLYLQMNSLRAEDTAVYYCARVGYGGNSDYWGQGTLVTVSS VL: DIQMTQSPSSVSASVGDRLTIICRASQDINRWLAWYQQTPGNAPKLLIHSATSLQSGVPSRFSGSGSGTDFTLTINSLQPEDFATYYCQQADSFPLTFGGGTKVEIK :: 0.92

Query: Provide fold affinity vs original value for the following binder: C5A (XPA23) VH N104H (antibody, V domains shown) VH: EVQLLESGGGLVQPGGSLRLSCAASGFTFSKYFMFWVRQAPGKGLEWVSVISPSGGMTRYADSVKGRFTISRDNSKNTLYLQMNSLRAEDTAVYYCARVGYGGHSDYWGQGTLVTVSS VL: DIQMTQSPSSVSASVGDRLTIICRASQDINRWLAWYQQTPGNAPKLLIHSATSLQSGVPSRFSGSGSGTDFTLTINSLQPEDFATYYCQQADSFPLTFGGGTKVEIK
Result: 0.07
